Consider the following compounds and their measured growth readings.
test system: SNB-19 CNS; experiment: NCI-60 one-dose screen, 48 h (100 = growth as untreated, 0 = no growth, -100 = all killed); settings: 10 µM
The panel holds about 83,000 compounds, 20% with a hit somewhere; the sample as a whole holds those more often.
State the answer as a number, implicitly in %.

compound	measuredQuantity	measValue
CN1CCN(c2ccc(C(=O)/C=C/c3cc(C(F)(F)F)ccc3Cl)cc2)CC1	growth	-99.2

Query: For the compound `O=c1c2ccccc2nc(COc2ccccc2)n1/N=C/c1ccc(N2CCOCC2)cc1` , report growth.
Reply: 3.55

Query: Return reported growth. Input compound: `COC[C@@H](CC(C)C)N=C1NC(=O)/C(=C/c2ccc3ncsc3c2)N1`
Reply: 11.5
